# target_of_assay: mouse DLL3 on CHO-K1-mDLL3 cells (mouse) (UniProt O88516)
# Sequence (O88516 other isoform, or with tags, fused parts or gaps limits assumed): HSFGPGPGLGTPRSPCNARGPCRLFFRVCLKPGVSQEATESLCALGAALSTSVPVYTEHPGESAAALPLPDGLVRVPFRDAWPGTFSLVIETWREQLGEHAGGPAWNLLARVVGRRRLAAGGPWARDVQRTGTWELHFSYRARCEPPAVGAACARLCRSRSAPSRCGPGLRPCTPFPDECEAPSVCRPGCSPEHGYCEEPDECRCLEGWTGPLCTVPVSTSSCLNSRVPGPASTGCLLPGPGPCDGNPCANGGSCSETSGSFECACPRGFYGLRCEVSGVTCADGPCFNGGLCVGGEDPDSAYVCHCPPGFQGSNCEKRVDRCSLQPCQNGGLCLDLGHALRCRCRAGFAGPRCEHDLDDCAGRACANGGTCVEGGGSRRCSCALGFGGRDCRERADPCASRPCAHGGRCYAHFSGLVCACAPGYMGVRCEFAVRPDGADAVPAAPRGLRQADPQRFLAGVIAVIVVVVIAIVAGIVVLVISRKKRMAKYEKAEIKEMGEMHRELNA
# assay_remarks: FACS, CHO-K1-mDLL3 cells, 100 nM antibody
recorded_metric: MFI (MFI)
# number only, unit MFI dropped from output

Hab015VL4VH1a-hFc (scFv, part only; not given: scFv linker and human IgG1 Fc, V domains shown, not shown: another chain or arm of the molecule; a dimerising Fc or GST; small tags and cut ends) VL: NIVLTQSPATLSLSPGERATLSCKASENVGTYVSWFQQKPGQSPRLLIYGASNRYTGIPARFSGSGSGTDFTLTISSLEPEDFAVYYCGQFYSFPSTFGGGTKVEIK VH: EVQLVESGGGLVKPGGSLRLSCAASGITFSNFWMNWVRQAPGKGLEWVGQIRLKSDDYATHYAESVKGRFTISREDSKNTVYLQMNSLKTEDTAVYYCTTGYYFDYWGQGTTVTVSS	1450
Hab015VL5VH1a-hFc (scFv, part only; not given: scFv linker and human IgG1 Fc, V domains shown, not shown: another chain or arm of the molecule; a dimerising Fc or GST; small tags and cut ends) VL: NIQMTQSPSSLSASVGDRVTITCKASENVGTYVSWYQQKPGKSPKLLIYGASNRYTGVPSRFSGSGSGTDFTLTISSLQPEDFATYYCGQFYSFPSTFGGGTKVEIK VH: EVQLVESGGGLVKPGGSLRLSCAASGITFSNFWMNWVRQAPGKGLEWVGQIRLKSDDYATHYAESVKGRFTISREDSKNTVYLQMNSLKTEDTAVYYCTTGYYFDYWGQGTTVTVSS	1550

Switching to the query record.
What does the data say about its MFI? Entry: Hab014VL2VH1-hFc (scFv, part only; not given: scFv linker and human IgG1 Fc, V domains shown, not shown: another chain or arm of the molecule; a dimerising Fc or GST; small tags and cut ends) VL: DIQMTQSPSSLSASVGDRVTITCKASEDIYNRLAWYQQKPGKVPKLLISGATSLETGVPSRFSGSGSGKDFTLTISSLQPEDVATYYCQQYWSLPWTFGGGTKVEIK VH: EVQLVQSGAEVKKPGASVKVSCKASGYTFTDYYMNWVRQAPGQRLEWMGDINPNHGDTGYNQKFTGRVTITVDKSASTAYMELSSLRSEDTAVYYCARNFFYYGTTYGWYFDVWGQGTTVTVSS
374
